In this section, each of the compounds is paired with its reported log10 IC50.
- assay-system: METTL3/14 (Homo sapiens)
- Construct: The enzyme used was full-length his-tagged METTL3; His; made in house
- Sequence (Q86U44 whole entry): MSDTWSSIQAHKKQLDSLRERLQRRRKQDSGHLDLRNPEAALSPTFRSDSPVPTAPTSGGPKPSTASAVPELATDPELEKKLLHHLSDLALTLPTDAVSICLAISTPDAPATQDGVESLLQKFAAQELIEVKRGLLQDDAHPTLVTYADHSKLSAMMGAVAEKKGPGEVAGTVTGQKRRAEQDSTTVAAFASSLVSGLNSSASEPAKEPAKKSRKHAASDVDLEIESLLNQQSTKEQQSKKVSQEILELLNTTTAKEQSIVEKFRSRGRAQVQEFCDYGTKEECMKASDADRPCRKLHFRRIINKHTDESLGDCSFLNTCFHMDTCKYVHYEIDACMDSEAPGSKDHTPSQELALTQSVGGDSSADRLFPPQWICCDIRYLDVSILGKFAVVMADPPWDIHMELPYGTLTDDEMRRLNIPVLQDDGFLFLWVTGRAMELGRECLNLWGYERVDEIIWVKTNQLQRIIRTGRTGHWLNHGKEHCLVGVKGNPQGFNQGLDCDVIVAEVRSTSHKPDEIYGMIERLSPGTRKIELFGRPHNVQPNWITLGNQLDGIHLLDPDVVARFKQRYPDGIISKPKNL
- Sequence (Q9HCE5 whole entry partner): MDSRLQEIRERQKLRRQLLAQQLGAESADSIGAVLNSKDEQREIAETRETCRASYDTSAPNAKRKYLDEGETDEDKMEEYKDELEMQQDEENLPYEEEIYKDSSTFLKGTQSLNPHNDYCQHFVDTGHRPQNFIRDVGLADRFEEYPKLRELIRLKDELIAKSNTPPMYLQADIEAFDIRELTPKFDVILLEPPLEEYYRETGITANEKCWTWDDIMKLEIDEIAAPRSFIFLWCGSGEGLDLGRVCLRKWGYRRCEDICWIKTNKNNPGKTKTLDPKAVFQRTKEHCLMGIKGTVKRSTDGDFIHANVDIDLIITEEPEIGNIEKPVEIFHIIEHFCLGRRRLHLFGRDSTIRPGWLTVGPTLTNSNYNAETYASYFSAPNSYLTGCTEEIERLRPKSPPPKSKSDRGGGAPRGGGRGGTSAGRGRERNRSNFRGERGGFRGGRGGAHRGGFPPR
- test-description: METTL3/14 methyltransferase assay (METTL3_14 RFMS, RapidFire mass spectrometry);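 note: recombinant His-tagged METTL3 with FLAG-tagged METTL14 from baculovirus, SAH product quantified by mass spectrometry against isotope-labelled internal standards, 60 min at room temperature, scaled between no-RNA and DMSO-only wells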
- Type: biochemical
- condition-label: 5 nM METTL3/14, 0.2 μM RNA substrate, 0.5 μM SAM; lower limit of the assay IC50=5 nM; Compounds 63-265; read-out: METTL3_14 RFMS IC50
Values reflect log10 of reported IC50 (nM).

Completed entries (count: 5):
O=C(NCc1cn2cc(CNCC3CCCCC3)ccc2n1)c1cc(=O)c2ccc(F)cc2o1 = 2.95
O=C(NCc1cn2cc(CNCc3cccnc3)ccc2n1)c1cc(=O)n2ccccc2n1 = 2.16
O=C(NCc1cn2cc(CNc3cccc(Cl)c3)ccc2n1)c1cc(=O)n2ccccc2n1 = 3.58
NC(Cc1ccccc1)Cc1ccc2nc(CNC(=O)c3cc(=O)n4ccccc4n3)cn2c1 (centres unmarked) = 3.03
O=C(NCc1cn2cc(CNCC3CCCNC3)ccc2n1)c1cc(=O)n2ccccc2n1 (centres unmarked) = 2.71

Value lookup for log10 IC50; key = O=C(NCc1cn2cc(CNC3(c4ccccc4)COC3)ccc2n1)c1cc(=O)n2ccccc2n1
3.27

Value lookup for log10 IC50; key = O=C(NCc1cn2ccc(CNCC3CC3)cc2n1)c1cc(=O)n2ccccc2n1
3.27

Value lookup for log10 IC50; key = O=C(NCc1cn2cc(CNC[C@H]3CCCO3)ccc2n1)c1cc(=O)n2ccccc2n1
1.94
